- systemUnderTest: chimeric human H3 receptor (Homo sapiens)
- Construct: made in house; host or cells: Sf9 insect cells (baculovirus); P2 membrane preparation
- protocolDescription: Chimeric human H3 receptor GTP binding assay (agonist-stimulated GTP-gamma35S binding, Example 7)
- Format: biochemical
- conditionDetails: Table II; "*" = Ki in assay of Example 7 less than 1 micromolar
pKi: −log10 of the molar value.
testReadout: pKi

> print(dat)
                                   molecule  assayresult
1  O=C(CN1CCc2cc(-n3ccnn3)ccc2C1)N1CCN(C2CCC2)CC1       > 6.00
2  N#Cc1ccc(-n2cc3c(n2)CCN(CC(=O)N2CCN(C4CCC4)CC2)C3)nn1       > 6.00
3  O=C(CN1CCc2ccc(-c3cncnc3)cc2CC1)N1CCN(C2CCC2)CC1       > 6.00
4  O=C(CN1CCc2cn(-c3cccnc3)nc2C1)N1CCN(C2CCC2)CC1       > 6.00
5  CC(=O)c1ccc2c(c1)CCN(CC(=O)N1CCN(C3CCCC3C)CC1)C2 (centres unmarked)       > 6.00
6  CC(=O)c1ccc2c(c1)CCN(CC(=O)N1CCN(C(C)C)CC1)C2       > 6.00
7  O=C(CN1CCc2cc(-n3ccc(C(F)(F)F)n3)ccc2C1)N1CCN(C2CCC2)CC1       > 6.00
8  O=C(CN1CCc2cc(-c3cncnc3)ccc2C1)N1CCN2CCCCC2C1 (centres unmarked)       > 6.00

---

- systemUnderTest: chimeric human H3 receptor (Homo sapiens, UniProt Q9Y5N1)
- Construct: made in house; host or cells: Sf9 insect cells (baculovirus); P2 membrane preparation
- Sequence (Q9Y5N1 with tags, fused parts or gaps): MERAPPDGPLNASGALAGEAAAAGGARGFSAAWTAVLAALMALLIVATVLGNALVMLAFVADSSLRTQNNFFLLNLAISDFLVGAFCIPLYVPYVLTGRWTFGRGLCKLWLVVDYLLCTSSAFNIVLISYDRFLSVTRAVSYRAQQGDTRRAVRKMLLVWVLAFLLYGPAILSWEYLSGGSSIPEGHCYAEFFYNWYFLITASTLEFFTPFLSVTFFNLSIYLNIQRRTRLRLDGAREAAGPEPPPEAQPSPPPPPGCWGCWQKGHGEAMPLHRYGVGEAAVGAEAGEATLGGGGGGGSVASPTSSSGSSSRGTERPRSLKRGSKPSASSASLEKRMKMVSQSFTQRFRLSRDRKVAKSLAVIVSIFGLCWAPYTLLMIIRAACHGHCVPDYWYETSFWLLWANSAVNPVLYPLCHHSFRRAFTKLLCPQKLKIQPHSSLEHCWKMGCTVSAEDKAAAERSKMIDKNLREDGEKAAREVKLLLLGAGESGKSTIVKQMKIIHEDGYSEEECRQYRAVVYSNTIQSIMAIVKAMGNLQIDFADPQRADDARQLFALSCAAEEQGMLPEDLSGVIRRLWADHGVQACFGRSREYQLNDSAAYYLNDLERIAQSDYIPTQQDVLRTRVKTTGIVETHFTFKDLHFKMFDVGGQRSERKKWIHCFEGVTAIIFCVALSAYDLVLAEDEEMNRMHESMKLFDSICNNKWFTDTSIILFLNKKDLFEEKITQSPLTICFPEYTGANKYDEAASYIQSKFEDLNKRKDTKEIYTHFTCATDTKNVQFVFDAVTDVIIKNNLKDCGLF
- protocolDescription: Chimeric human H3 receptor GTP binding assay (agonist-stimulated GTP-gamma35S binding, Example 7)
- Type: biochemical
- conditionDetails: Table II; "*" = Ki in assay of Example 7 less than 1 micromolar
testReadout: Ki

> print(dat)
                                    compound                           systemundertest  testreadout  assayresult
 1  O=C(CN1CCc2cc(-c3ccc4nccn4c3)ccc2C1)N1CCN(C2CCC2)CC1  chimeric human H3 receptor (Homo sapiens, UniProt Q9Y5N1)           Ki    < 1000 nM
 2  CC(=O)c1ccc2c(c1)CCN(CC(=O)N1CCN(C3CCC3)CC1)CC2  chimeric human H3 receptor (Homo sapiens, UniProt Q9Y5N1)           Ki    < 1000 nM
 3  CC(C)N1CCN(C(=O)CN2CCc3[nH]c(=O)ccc3C2)CC1  chimeric human H3 receptor (Homo sapiens, UniProt Q9Y5N1)           Ki    < 1000 nM
 4  CC(=O)c1ccc2c(n1)CCN(CC(=O)N1CCN(C3CCC3)CC1)C2  chimeric human H3 receptor (Homo sapiens, UniProt Q9Y5N1)           Ki    < 1000 nM
 5  O=C(CN1CCc2nn(-c3cncc(Cl)n3)cc2C1)N1CCN(C2CCC2)CC1  chimeric human H3 receptor (Homo sapiens, UniProt Q9Y5N1)           Ki    < 1000 nM
 6  O=C(CN1CCc2nc(N3CCC(O)C3)ccc2C1)N1CCN(C2CCC2)CC1 (centres unmarked)  chimeric human H3 receptor (Homo sapiens, UniProt Q9Y5N1)           Ki    < 1000 nM
 7  O=C(CN1CCc2cc(N3CCCC3)nnc2C1)N1CCN(C2CCC2)CC1  chimeric human H3 receptor (Homo sapiens, UniProt Q9Y5N1)           Ki    < 1000 nM
 8  CSc1nc2c(o1)CN(CC(=O)N1CCN(C3CCC3)CC1)CC2  chimeric human H3 receptor (Homo sapiens, UniProt Q9Y5N1)           Ki    < 1000 nM
 9  CC(=O)c1ccc(-n2cc3c(n2)CCN(CC(=O)N2CCN(C4CCC4)CC2)C3)nn1  chimeric human H3 receptor (Homo sapiens, UniProt Q9Y5N1)           Ki    < 1000 nM
10  O=C(CN1CCc2cn(-c3cncnc3)nc2C1)N1CCN(C2CCC2)CC1  chimeric human H3 receptor (Homo sapiens, UniProt Q9Y5N1)           Ki    < 1000 nM
11  CC(=O)c1ccc2c(c1)CCN(CC(=O)N1CCN3C(C)CCCC3C1)C2 (centres unmarked)  chimeric human H3 receptor (Homo sapiens, UniProt Q9Y5N1)           Ki    < 1000 nM
12  COCCN(C)c1ccc2c(n1)CCN(CC(=O)N1CCN3C(C)CCC[C@H]3C1)C2 (stereo in doubt)  chimeric human H3 receptor (Homo sapiens, UniProt Q9Y5N1)           Ki    < 1000 nM
13  O=C(CN1CCc2cc(-c3cccc(F)c3)nnc2C1)N1CCN(C2CCC2)CC1  chimeric human H3 receptor (Homo sapiens, UniProt Q9Y5N1)           Ki    < 1000 nM
14  Cc1cnn(-c2ccc3c(c2)CCN(CC(=O)N2CCN(C4CCC4)CC2)C3)c1  chimeric human H3 receptor (Homo sapiens, UniProt Q9Y5N1)           Ki    < 1000 nM
15  O=C(CN1CCc2nc(-c3cccnn3)ccc2C1)N1CCN(C2CCC2)CC1  chimeric human H3 receptor (Homo sapiens, UniProt Q9Y5N1)           Ki    < 1000 nM
16  CS(=O)(=O)c1ccc(-c2nc3c(s2)CCN(CC(=O)N2CCN(C4CCC4)CC2)C3)cc1  chimeric human H3 receptor (Homo sapiens, UniProt Q9Y5N1)           Ki    < 1000 nM
17  O=C(CN1CCc2c(cnn2-c2ccc(Cl)nn2)C1)N1CCN(C2CCC2)CC1  chimeric human H3 receptor (Homo sapiens, UniProt Q9Y5N1)           Ki    < 1000 nM

---

- systemUnderTest: chimeric human H3 receptor (Homo sapiens, UniProt Q9Y5N1)
- Construct: made in house; host or cells: Sf9 insect cells (baculovirus); P2 membrane preparation
- protocolDescription: Chimeric human H3 receptor GTP binding assay (agonist-stimulated GTP-gamma35S binding, Example 7)
- Format: biochemical
- conditionDetails: Table II; "*" = Ki in assay of Example 7 less than 1 micromolar
pKi: −log10 of the molar value.
testReadout: pKi

> print(dat)
                                   compound                           systemundertest  testreadout  assayresult
1  Cc1ccc(-n2cc3c(n2)CCN(CC(=O)N2CCN(C4CCC4)CC2)C3)nc1  chimeric human H3 receptor (Homo sapiens, UniProt Q9Y5N1)          pKi       > 6.00
2  CC1CN(C(=O)CN2CCc3nc(-c4cscn4)sc3C2)CCN1C1CCC1 (centres unmarked)  chimeric human H3 receptor (Homo sapiens, UniProt Q9Y5N1)          pKi       > 6.00
3  O=C(CN1CCc2cc(N3CCCCC3=O)ccc2C1)N1CCN(C2CCC2)CC1  chimeric human H3 receptor (Homo sapiens, UniProt Q9Y5N1)          pKi       > 6.00
4  CNC(=O)c1cnc2c(c1)CCN(CC(=O)N1CCN(C3CCC3)C(C)C1)C2 (centres unmarked)  chimeric human H3 receptor (Homo sapiens, UniProt Q9Y5N1)          pKi       > 6.00
5  O=C(CN1CCc2nc(-n3cccn3)ncc2C1)N1CCN(C2CCC2)CC1  chimeric human H3 receptor (Homo sapiens, UniProt Q9Y5N1)          pKi       > 6.00
6  O=C(CN1CCc2cc(-c3cnccn3)ccc2C1)N1CCN(C2CCC2)CC1  chimeric human H3 receptor (Homo sapiens, UniProt Q9Y5N1)          pKi       > 6.00
7  Cn1cc(-c2cc3c(s2)CCN(CC(=O)N2CCN(C4CCC4)CC2)C3)ccc1=O  chimeric human H3 receptor (Homo sapiens, UniProt Q9Y5N1)          pKi       > 6.00
8  CC1CN(C(=O)CN2CCc3nc(-c4ccncc4)sc3C2)CCN1C1CCC1 (centres unmarked)  chimeric human H3 receptor (Homo sapiens, UniProt Q9Y5N1)          pKi       > 6.00

---

- systemUnderTest: chimeric human H3 receptor (Homo sapiens)
- Construct: made in house; host or cells: Sf9 insect cells (baculovirus); P2 membrane preparation
- protocolDescription: Chimeric human H3 receptor GTP binding assay (agonist-stimulated GTP-gamma35S binding, Example 7)
- Format: biochemical
- conditionDetails: Table II "Ki", symbol *; assay of Example 7
- Method: This Example illustrates a representative assay for evaluating agonist-stimulated GTP-gamma^35S binding (“GTP binding”) activity. […] A compound analyzed in this assay is referred to herein as a “test compound.” […] After a 60-min incubation at room temperature, reactions are terminated by vacuum filtration over WHATMAN GF/C filters (pre-soaked in wash buffer, 0.1% BSA) followed by washing with ice-cold wash buffer (50 mM Tris pH 7.4, 120 mM NaCl). […] Data is expressed as percent above basal (baseline). […]
testReadout: Ki

> print(dat)
                                   compound                           systemundertest  assayresult
1  Cc1ccc(-c2ccc3c(c2)CCN(CC(=O)N2CCN(C4CCC4)CC2)C3)nc1 [Compound 629]  chimeric human H3 receptor (Homo sapiens)       < 1 µM
2  C[C@@H]1CN(C(=O)CN2CCc3cc(-c4cncnc4)ccc3C2)CCN1C1CCCC1 [Compound 611]  chimeric human H3 receptor (Homo sapiens)       < 1 µM
3  COc1cc(-c2ccc3c(c2)CCN(CC(=O)N2CCN(C4CCC4)CC2)C3)nc(OC)n1 [Compound 635]  chimeric human H3 receptor (Homo sapiens)       < 1 µM
4  CC1CCCC1N1CCN(C(=O)CN2CCc3cc(-c4cncnc4)ccc3C2)CC1 (stereo not shown) [Compound 613]  chimeric human H3 receptor (Homo sapiens)       < 1 µM

FYI, the data here is from patent US20110082130A1.
